Every entry's value here was drawn from patent US5710150A.

target.desc: arginine vasopressin V1 receptor (Rattus norvegicus, UniProt P30560)
Construct: A rat liver membrane sample was prepared; from tissue; host or cells: rat liver membranes
Sequence (P30560 whole entry): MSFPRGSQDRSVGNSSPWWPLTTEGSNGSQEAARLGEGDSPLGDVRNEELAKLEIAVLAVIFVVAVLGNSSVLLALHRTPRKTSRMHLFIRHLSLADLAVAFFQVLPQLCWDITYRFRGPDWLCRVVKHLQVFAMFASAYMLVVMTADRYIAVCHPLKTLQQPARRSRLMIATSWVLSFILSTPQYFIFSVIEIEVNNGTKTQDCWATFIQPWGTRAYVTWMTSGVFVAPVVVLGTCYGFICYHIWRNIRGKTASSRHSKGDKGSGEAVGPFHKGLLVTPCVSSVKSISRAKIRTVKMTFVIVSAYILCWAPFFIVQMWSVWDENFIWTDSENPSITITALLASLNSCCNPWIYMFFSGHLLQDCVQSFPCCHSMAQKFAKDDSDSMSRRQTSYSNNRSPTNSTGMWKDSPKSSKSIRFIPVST
test: V1 receptor binding assay ([3H]-Arg-vasopressin, rat liver membrane)
setup.conditions: rat liver membrane, [3H]-Arg-vasopressin 2 nM, 30° C., 30 minutes, pH 8.0; read-out: Binding activity on arginine vasopressin V1 receptor (pKi) (converted)
Structures can show the parent of a compound that is named as a salt.
Rule for this label: true means Ki is less than 2 nM; false means Ki is at least 2 nM.

CNC(=O)/C=C1/c2ccccc2N(C(=O)c2ccc(NC(=O)c3ccccc3-c3ccccc3)cc2)CCC1(F)F [Example 122] | true
CCc1nccn1-c1ccccc1C(=O)Nc1ccc(C(=O)N2CCC(F)(F)/C(=C\C(=O)NC3CC3)c3ccccc32)cc1 [Example 105] | true
CN(C)CC/C=C1\c2ccccc2N(C(=O)c2ccc(NC(=O)c3ccccc3-c3ccccc3)cc2)CCC1(F)F.Cl [Example 82, hydrochloride] | false
NC(=O)/C=C1/c2ccccc2N(C(=O)c2ccc(NC(=O)c3ccccc3-c3ccccc3)cc2)CCC1(F)F [Example 121] | true

Here is another compound to look at.
query: Please determine if CN(C)C1CCN(C(=O)/C=C2/c3ccccc3N(C(=O)c3ccc(NC(=O)c4cccc5ccccc45)cc3)CCC2(F)F)CC1 [Example 109, hydrochloride] is below 2 nM in terms of Ki.
result: false

* * *

target.desc: arginine vasopressin V1 receptor (Rattus norvegicus)
Construct: A rat liver membrane sample was prepared; from tissue; host or cells: rat liver membranes
test: V1 receptor binding assay ([3H]-Arg-vasopressin, rat liver membrane)
Structures can show the parent of a compound that is named as a salt.
Kindly state pKi for each of the entries shown.
Numbers only, as −log10 of the molar value.

For every record below, what is its pKi?
1. Cc1ccsc1C(=O)Nc1ccc(C(=O)N2CCC(F)(F)/C(=C\C(=O)N3CCC(N(C)C)CC3)c3ccccc32)cc1 [Example 111, hydrochloride]
2. Cc1ccc(-c2ccccc2C(=O)Nc2ccc(C(=O)N3CCC(F)(F)/C(=C\C#N)c4ccccc43)cc2)cc1
3. CN(C)C1CCN(C(=O)/C=C2/c3ccccc3N(C(=O)c3ccc(NC(=O)c4cccn4C)cc3)CCC2(F)F)CC1 [Example 110, hydrochloride]
4. Cc1ccoc1C(=O)Nc1ccc(C(=O)N2CCC(F)(F)/C(=C\C(=O)N3CCC(N(C)C)CC3)c3ccccc32)cc1 [Example 113, hydrochloride]

result:
9.25
8.02
9.40
9.58

* * *

target.desc: arginine vasopressin V1 receptor (Rattus norvegicus)
Construct: A rat liver membrane sample was prepared; from tissue; host or cells: rat liver membranes
test: V1 receptor binding assay ([3H]-Arg-vasopressin, rat liver membrane)
setup.conditions: rat liver membrane, [3H]-Arg-vasopressin 2 nM, 30° C., 30 minutes, pH 8.0; read-out: Binding activity on arginine vasopressin V1 receptor (pKi) (converted)
Counter-ions that a name gives are not always drawn.
Kindly state Ki for each of the entries shown.
Give bare numbers, in nM.

Example results:
CN1CCCN(C(=O)/C=C2/c3ccccc3N(C(=O)c3ccc(NC(=O)c4ccccc4-c4ccccc4)cc3)CCC2(F)F)CC1.Cl [Example 24, hydrochloride] | 0.0316
O=C(Nc1ccc(C(=O)N2CCC(F)(F)/C(=C\C(=O)N3CCC(N4CCCCC4)CC3)c3ccccc32)cc1)c1ccccc1-c1ccccc1 [Example 83, hydrochloride] | 0.234
O=C(Nc1ccc(C(=O)N2CCC(F)(F)/C(=C\C(=O)N3CCCC3)c3ccccc32)cc1)c1ccccc1-c1ccccc1 | 0.708
CN(C)C(=O)/C=C1/c2ccccc2N(C(=O)c2ccc(NC(=O)c3ccccc3-c3ccccc3)cc2)CCC1(F)F | 0.479
CCc1nccn1-c1ccccc1C(=O)Nc1ccc(C(=O)N2CCC(F)(F)/C(=C\C(=O)OC)c3ccccc32)cc1 | 1.15

query: Entry CN1CCN(C(=O)/C=C2/c3ccccc3N(C(=O)c3ccc(NC(=O)c4ccccc4-c4ccccc4)cc3)CCC2(F)F)CC1.Cl [Example 11, hydrochloride] , system arginine vasopressin V1 receptor (Rattus norvegicus): what Ki was measured?
result: 1.29
